method description: Cell Viability - SH-SY5Y (AID 544);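 further: cells exposed to compound for 40 hours; nearly all actives have a fitted effect of over 55% in size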
details: SH-SY5Y neuroblastoma cell viability
Records with an inconclusive call do not appear. The source made the active and inactive calls. The call rests on the fitted dose curve; in most records, active means well fitted cell-killing curve with a large enough effect; inconclusive means small, poorly fitted or top-dose-only effect; inactive means flat fitted curve, though single readings scatter.
Use one of these outcomes when replying: active, inactive

Here are 3 molecules together with their reported answers.
molecule: CCCCCCCCOc1ccc(C(=O)O)cc1
group: inactive
--
molecule: O=CC(=O)c1ccccc1
group: inactive
--
molecule: O=Nc1ccc(Nc2ccccc2)cc1
group: active

Let us examine a further case.
stdin: For Cc1c(N)cccc1Cl , which call appears in the assay record?
stdout: inactive

----------
method description: Cell Viability - Mesenchymal (AID 546);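 further: cells exposed to compound for 40 hours before reading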
details: mesenchymal cells viability, qHTS
Excerpt: NIH Chemical Genomics Center [NCGC] NIH Molecular Libraries Screening Centers Network [MLSCN] National Institutes of Environmental Health Sciences [NIEHS] National Toxicology Program [NTP] We have developed a 1536-well cell-based assay for quantitative high throughput screening (qHTS) against a number of cell lines to determine in vitro cytotoxicity of small molecules. […] 8. Detection; Luminescence; Viewlux plate reader […]
Records with an inconclusive call do not appear. Calls of active or inactive are those of the source. Calls follow the shape of the dose curve; as a rule, active = well fitted cell-killing curve with a large enough effect; inconclusive = small, poorly fitted or top-dose-only effect; inactive = flat fitted curve, though single readings scatter.
Use one of these outcomes when replying: label 1 (active), label 0 (inactive)

stdin: For N=C1C=CC(=C(c2ccc(N)cc2)c2ccc(N)cc2)C=C1 , which call appears in the assay record?
stdout: label 1
